Tested on: anti-M2 human monoclonal antibody Z3G1
Type: binding
Tick T if Signal (peptides that bind to Z3G1) is 2000 or greater. Tick F if Signal (peptides that bind to Z3G1) is less than 2000.

1. 1276 (MSLQTEVETPIRNEWGCRCN; epitope peptide) [compound 1276]    T
2. 1260 (MNLLTEVETPIRNEWGCRCN; epitope peptide) [compound 1260]    T
3. 1478 (CLTEVETPIRLLTEVETPICEVETPIRNE; epitope peptide; MISC_FEATURE (1)..(1): C is an attachment site for a CLIP; MISC_FEATURE (10)..(10): R is an attachment site for a CLIP; MISC_FEATURE (11)..(11): L is an attachment site for a CLIP; MISC_FEATURE (29)..(29): E is an attachment site for a CLIP) [compound 1478]    F
4. 560 (SLLTEVETPIRNEWGCRCFDSSD; epitope peptide) [compound 560]    T
5. 416 (SLLTEVETPIRNEWGCRCNDTSD; epitope peptide) [compound 416]    T
